# target.entity: hERG channel (Homo sapiens (Human), UniProt Q12809)
# Sequence (Q12809 whole entry): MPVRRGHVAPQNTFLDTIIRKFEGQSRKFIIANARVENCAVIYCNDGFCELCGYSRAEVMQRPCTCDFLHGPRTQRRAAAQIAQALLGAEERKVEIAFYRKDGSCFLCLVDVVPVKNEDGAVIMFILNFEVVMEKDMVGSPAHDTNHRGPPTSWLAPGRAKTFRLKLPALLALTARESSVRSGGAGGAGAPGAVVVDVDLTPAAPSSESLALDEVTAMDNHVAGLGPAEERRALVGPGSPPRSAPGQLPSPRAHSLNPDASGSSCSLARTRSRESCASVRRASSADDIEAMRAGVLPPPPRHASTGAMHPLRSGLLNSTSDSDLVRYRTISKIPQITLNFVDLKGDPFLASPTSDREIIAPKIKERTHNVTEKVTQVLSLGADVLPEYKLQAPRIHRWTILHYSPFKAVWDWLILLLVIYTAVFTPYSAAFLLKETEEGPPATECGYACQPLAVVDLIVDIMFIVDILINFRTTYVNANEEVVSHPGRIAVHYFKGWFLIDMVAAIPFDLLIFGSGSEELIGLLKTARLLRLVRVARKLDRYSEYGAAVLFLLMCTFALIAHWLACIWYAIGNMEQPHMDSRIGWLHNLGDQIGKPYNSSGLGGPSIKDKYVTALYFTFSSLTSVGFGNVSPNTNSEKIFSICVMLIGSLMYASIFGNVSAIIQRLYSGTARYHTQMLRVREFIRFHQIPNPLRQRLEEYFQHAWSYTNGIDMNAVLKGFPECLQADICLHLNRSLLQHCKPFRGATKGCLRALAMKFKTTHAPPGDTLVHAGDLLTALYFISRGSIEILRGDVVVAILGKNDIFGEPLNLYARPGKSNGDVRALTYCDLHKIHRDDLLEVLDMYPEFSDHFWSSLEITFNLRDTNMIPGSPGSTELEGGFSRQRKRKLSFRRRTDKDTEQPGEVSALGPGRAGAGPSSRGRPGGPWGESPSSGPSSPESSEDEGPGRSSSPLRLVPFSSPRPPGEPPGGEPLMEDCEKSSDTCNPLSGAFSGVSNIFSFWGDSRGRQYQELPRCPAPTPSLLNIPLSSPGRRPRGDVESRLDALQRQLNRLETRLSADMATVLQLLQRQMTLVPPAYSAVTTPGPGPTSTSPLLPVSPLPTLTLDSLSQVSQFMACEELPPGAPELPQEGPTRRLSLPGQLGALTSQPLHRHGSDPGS
# assay.remarks: hERG-Channel Assay (Assay 3), whole-cell patch clamp
# Format: cell-based
# conditions.used: HEK293 cells transfected with hERG, 35° C.

# query.smiles, hERG % inhibition @ 10 μM (assay 3)
rows = [
    ("CO[C@H]1[C@H](C)C[C@@]2(Cc3ccc(C#N)cc3[C@]23N=C(N)N(C2COC2)C3=O)C[C@@H]1C", "11%"),
    ("CO[C@H]1[C@H](C)C[C@@]2(Cc3ccc(C#N)cc3[C@]23N=C(N)N(Cc2ccncn2)C3=O)C[C@@H]1C", "23%"),
    ("CO[C@H]1[C@H](C)C[C@@]2(Cc3ccc(C#N)cc3[C@]23N=C(N)N(CC2(C)COC2)C3=O)C[C@@H]1C", "6%"),
]

---

# target.entity: hERG channel (Homo sapiens (Human), UniProt Q12809)
# assay.remarks: hERG-Channel Assay (Assay 3), whole-cell patch clamp
# Format: cell-based
# conditions.used: HEK293 cells transfected with hERG, 35° C.
hERG % inhibition @ 10 μM (assay 3) reference
reported.endpoint: hERG % inhibition @ 10 μM (assay 3) (%)

# compound, reported.endpoint, reported.value
data = [
    ("CC[C@@H]1C[C@]2(CC[C@H]1OC)Cc1ccc(C#N)cc1[C@]21N=C(N)N(CC2CCOCC2)C1=O", "hERG % inhibition @ 10 μM (assay 3)", 22),
    ("CC[C@@H]1C[C@]2(CC[C@H]1OC)Cc1ccc(C#N)cc1[C@]21N=C(N)N(Cc2ncccn2)C1=O", "hERG % inhibition @ 10 μM (assay 3)", 8),
    ("CO[C@H]1CC[C@@]2(Cc3ccc(C#N)cc3[C@]23N=C(N)N(Cc2ncccn2)C3=O)C[C@@H]1C", "hERG % inhibition @ 10 μM (assay 3)", 35),
    ("CO[C@H]1[C@H](C)C[C@@]2(Cc3ccc(F)cc3[C@]23N=C(N)N(CC2(C)OCCO2)C3=O)C[C@@H]1C", "hERG % inhibition @ 10 μM (assay 3)", 7),
    ("CO[C@H]1[C@H](C)C[C@@]2(Cc3ccc(C#N)cc3[C@]23N=C(N)N(C[C@@H]2CCCO2)C3=O)C[C@@H]1C", "hERG % inhibition @ 10 μM (assay 3)", 11),
    ("CC[C@@H]1C[C@]2(CC[C@H]1OC)Cc1ccc(C#N)cc1[C@]21N=C(N)N(CC(C)(C)F)C1=O", "hERG % inhibition @ 10 μM (assay 3)", 9),
    ("CC[C@@H]1C[C@@]2(Cc3ccc(C#N)cc3[C@]23N=C(N)N(CC(C)(C)F)C3=O)C[C@H](C)[C@H]1OC", "hERG % inhibition @ 10 μM (assay 3)", 8),
    ("CC[C@@H]1C[C@]2(CC[C@H]1OC)Cc1ccc(C#N)cc1[C@]21N=C(N)N(C[C@H]2COCCO2)C1=O", "hERG % inhibition @ 10 μM (assay 3)", 9),
    ("CO[C@H]1[C@H](C)C[C@@]2(Cc3ccc(C#N)cc3[C@]23N=C(N)N(Cc2ncc(F)cn2)C3=O)C[C@@H]1C", "hERG % inhibition @ 10 μM (assay 3)", 38),
    ("COCCN1C(=O)[C@]2(N=C1N)c1cc(C#N)ccc1C[C@@]21CC[C@H](OC)[C@@H](C)C1", "hERG % inhibition @ 10 μM (assay 3)", 8),
    ("CO[C@H]1CC[C@@]2(Cc3ccc(C#N)cc3[C@]23N=C(N)N(Cc2ccncn2)C3=O)C[C@@H]1C", "hERG % inhibition @ 10 μM (assay 3)", 16),
    ("CO[C@H]1[C@H](C)C[C@@]2(Cc3ccc(C#N)cc3[C@]23N=C(N)N(CC(C)(C)F)C3=O)C[C@@H]1C", "hERG % inhibition @ 10 μM (assay 3)", 12),
    ("CO[C@H]1[C@H](C)C[C@@]2(Cc3ccc(F)cc3[C@]23N=C(N)N(C[C@@H]2CCOC2)C3=O)C[C@@H]1C", "hERG % inhibition @ 10 μM (assay 3)", 10),
    ("CC[C@@H]1C[C@]2(CC[C@H]1OC)Cc1ccc(C#N)cc1[C@]21N=C(N)N(CC2(F)CCOCC2)C1=O", "hERG % inhibition @ 10 μM (assay 3)", 0),
    ("CO[C@H]1[C@H](C)C[C@@]2(Cc3ccc(C#N)cc3[C@]23N=C(N)N(C[C@H]2COCCO2)C3=O)C[C@@H]1C", "hERG % inhibition @ 10 μM (assay 3)", 9),
    ("CO[C@H]1[C@H](C)C[C@@]2(Cc3ccc(C#N)cc3[C@]23N=C(N)N(CCC2COC2)C3=O)C[C@@H]1C", "hERG % inhibition @ 10 μM (assay 3)", 8),
    ("CO[C@H]1[C@H](C)C[C@@]2(Cc3ccc(C#N)cc3[C@]23N=C(N)N(C[C@@H]2CCO2)C3=O)C[C@@H]1C (stereo in doubt)", "hERG % inhibition @ 10 μM (assay 3)", 17),
    ("CO[C@H]1[C@H](C)C[C@@]2(Cc3ccc(C#N)cc3[C@]23N=C(N)N(CC2(F)CCOCC2)C3=O)C[C@@H]1C", "hERG % inhibition @ 10 μM (assay 3)", 16),
    ("COC1CCC2(CC1)Cc1ccc(C#N)cc1C21N=C(N)N(CC2CCCO2)C1=O (stereo not drawn) [Comparison example drawing 13, reference compound]", "hERG % inhibition @ 10 μM (assay 3)", 16),
    ("CO[C@H]1CC[C@@]2(Cc3ccc(C#N)cc3[C@]23N=C(N)N(CC2COCCO2)C3=O)C[C@@H]1C (stereo partly drawn)", "hERG % inhibition @ 10 μM (assay 3)", 19),
    ("CO[C@H]1[C@H](C)C[C@@]2(Cc3ccc(C#N)cc3[C@]23N=C(N)N(CC2CCOCC2)C3=O)C[C@@H]1C", "hERG % inhibition @ 10 μM (assay 3)", 6),
    ("CC[C@H]1C[C@@]2(CC[C@@H]1OC)Cc1ccc(C#N)cc1[C@]21N=C(N)N(C[C@H]2CCCO2)C1=O", "hERG % inhibition @ 10 μM (assay 3)", 7),
    ("CO[C@H]1[C@H](C)C[C@@]2(Cc3ccc(C#N)cc3[C@]23N=C(N)N(C[C@@H]2COCCO2)C3=O)C[C@@H]1C", "hERG % inhibition @ 10 μM (assay 3)", 24),
    ("CO[C@H]1[C@H](C)C[C@@]2(Cc3ccc(C#N)cc3[C@]23N=C(N)N(CC2(C)OCCO2)C3=O)C[C@@H]1C", "hERG % inhibition @ 10 μM (assay 3)", 8),
    ("CO[C@H]1[C@H](C)C[C@@]2(Cc3ccc(C#N)cc3[C@]23N=C(N)N(C[C@H]2CCCO2)C3=O)C[C@@H]1C", "hERG % inhibition @ 10 μM (assay 3)", 20),
    ("CO[C@H]1CC[C@@]2(Cc3ccc(C#N)cc3[C@]23N=C(N)N(CC2(C)COC2)C3=O)C[C@@H]1C", "hERG % inhibition @ 10 μM (assay 3)", 16),
    ("CO[C@H]1[C@H](C)C[C@@]2(Cc3ccc(C#N)cc3[C@]23N=C(N)N(CC2COC2)C3=O)C[C@@H]1C", "hERG % inhibition @ 10 μM (assay 3)", 18),
]
